Where these numbers come from: PubChem BioAssay (EPA / NIEHS)

# Read-out: Interferon-gamma inducible Protein 10 (IP10), CXCL10 (gene 3627)
# testSummary: BSK_KF3CT_IP10: BioMAP Diversity Plus: KF3CT Assay for Interferon-gamma inducible Protein 10 (IP10) Biomarker Activity (AID 2283068)
# setupConditions: primary human keratinocytes with fibroblasts; actives raise or lower the signal
Activity calls are given as the source filed them. Rule for the calls: active = hit-call score of the fitted dose curve at least 0.9, where 1 is the maximum; inactive = score below 0.9.
Assign a class; possible classes are active, inactive

(Q) Would you mind telling me which call this test gave CC(C)=CCCC(C)=CC=O ?
(A) inactive

(Q) Would you mind telling me which call this test gave Cc1[nH]cnc1C[C@H]1CCc2c(C)c3ccccc3n2C1=O ?
(A) inactive

(Q) Would you mind telling me which call this test gave CC(C)(O)c1coc(S(=O)(=O)NC(=O)Nc2c3c(cc4c2CCC4)CCC3)c1 ?
(A) inactive

(Q) Would you mind telling me which call this test gave CCCCCCCCCCCCc1ccccc1 ?
(A) inactive

(Q) Would you mind telling me which call this test gave CNCc1ccc(NC(=O)c2c[nH]c3c2C(=O)CCC3)cc1 ?
(A) inactive

(Q) Would you mind telling me which call this test gave CC(C)c1cccc(C(C)C)c1N1C(=O)c2ccc(O)cc2C1=O ?
(A) active

(Q) Would you mind telling me which call this test gave C=CC(=C)CCC=C(C)C ?
(A) inactive

(Q) Would you mind telling me which call this test gave CCc1cc(SCc2sc(-c3ccc(C(F)(F)F)cc3)nc2CN2CCN(c3ccc(OC)cc3)CC2)ccc1OCC(=O)O ?
(A) active

(Q) Would you mind telling me which call this test gave CC[C@H]1CC[C@H](NCc2cc3c(cc2OC)[C@H]2C[C@H]2C(=O)N3C)[C@H](c2ccccc2)N1 ?
(A) inactive

(Q) Would you mind telling me which call this test gave CC(C)CCCCCCCOC(=O)CCCCC(=O)OCCCCCCCC(C)C ?
(A) inactive

(Q) Would you mind telling me which call this test gave C[C@](N)(Cc1ccc(O)c(O)c1)C(=O)O ?
(A) inactive

---

# Read-out: Tumor necrosis factor (Homo sapiens) (UniProt P01375)
# Sequence (P01375 whole entry, looked up): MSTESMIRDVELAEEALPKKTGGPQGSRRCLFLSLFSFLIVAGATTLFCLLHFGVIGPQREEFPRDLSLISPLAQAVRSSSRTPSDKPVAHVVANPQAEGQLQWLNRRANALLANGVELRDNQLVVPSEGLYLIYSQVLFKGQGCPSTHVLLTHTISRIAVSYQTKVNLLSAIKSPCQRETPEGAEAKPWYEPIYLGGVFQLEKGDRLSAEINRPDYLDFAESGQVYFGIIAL
# testSummary: BSK_LPS_TNFa: BioMAP Diversity Plus: LPS Assay for Tumour Necrosis Factor alpha (TNFa) Biomarker Activity (AID 2283085)
# setupConditions: primary human HUVEC with PBMC; actives raise or lower the signal
Activity calls are given as the source filed them. The calls were made as follows: active = hit-call score of the fitted dose curve at least 0.9, where 1 is the maximum; inactive = score below 0.9.
Assign a class; possible classes are y (active), n (inactive)

(Q) Would you mind telling me which call this test gave O=c1n(CC2CO2)c(=O)n(CC2CO2)c(=O)n1CC1CO1 (stereo unspecified) ?
(A) n

(Q) Would you mind telling me which call this test gave CC(C)=CCCC(C)=CC=O ?
(A) n

(Q) Would you mind telling me which call this test gave Nc1ccc(Nc2ccccc2)cc1 ?
(A) y

(Q) Would you mind telling me which call this test gave CC(C)(O)c1coc(S(=O)(=O)NC(=O)Nc2c3c(cc4c2CCC4)CCC3)c1 ?
(A) y

(Q) Would you mind telling me which call this test gave CCn1nc(Cc2ccccc2)cc1C1CCN(C[C@H]2C[C@H](N(C)[C@@H](C(=O)O)C(C)C)C[C@@H]2c2cccc(F)c2)CC1 ?
(A) n

(Q) Would you mind telling me which call this test gave CCOc1cccc(-n2cc(C(=O)N3CCN(c4cc(C(=O)O)c5ccccc5c4)CC3)nc2-c2ccc(C)cc2)c1 ?
(A) y

(Q) Would you mind telling me which call this test gave O=c1[nH]c2ccc(S(=O)CCN3CCC(Cc4ccc(F)cc4)CC3)cc2o1 (stereo unspecified) ?
(A) n

(Q) Would you mind telling me which call this test gave CCOC(=O)c1ccc(C2CCC(NC[C@H](O)COc3ccc(O)c(NS(C)(=O)=O)c3)CC2)cc1 (stereo partly specified) ?
(A) n

(Q) Would you mind telling me which call this test gave CC(C)=CCC/C(C)=C\CO ?
(A) n

(Q) Would you mind telling me which call this test gave CCCCCCCCCCCCc1ccccc1 ?
(A) n

(Q) Would you mind telling me which call this test gave O=P(OC(CCl)CCl)(OC(CCl)CCl)OC(CCl)CCl ?
(A) n

---

# Read-out: matrix metalloproteinase-3 (MMP3), MMP3 (gene 4314)
# testSummary: LTEA_HepaRG_MMP3: Life Technologies and Expression Analysis (LTEA) Assay for matrix metalloproteinase-3 (MMP3) using HepaRG (AID 2283519)
# setupConditions: mRNA level, 48 h; actives raise or lower the signal
The source made the active and inactive calls. How the source made its calls: active means hit-call score of the fitted dose curve at least 0.9, where 1 is the maximum; inactive means score below 0.9.
Assign a class; possible classes are t (active), f (inactive)

(Q) Would you mind telling me which call this test gave CC(C)=CCCC(C)=CC=O ?
(A) f

(Q) Would you mind telling me which call this test gave CCc1cc(SCc2sc(-c3ccc(C(F)(F)F)cc3)nc2CN2CCN(c3ccc(OC)cc3)CC2)ccc1OCC(=O)O ?
(A) f

(Q) Would you mind telling me which call this test gave O=C1OC(=O)C2C3C=CC(C3)C12 (stereo unspecified) ?
(A) f

(Q) Would you mind telling me which call this test gave O=C(CCCCCCCCc1cccnc1)N1CCC(C=C(c2ccccc2)c2ccccc2)CC1 ?
(A) t

(Q) Would you mind telling me which call this test gave Cc1[nH]cnc1C[C@H]1CCc2c(C)c3ccccc3n2C1=O ?
(A) t

(Q) Would you mind telling me which call this test gave CC/C(=C\C(=N/O)C(N)=O)C(C)[N+](=O)[O-] (stereo unspecified) ?
(A) f

(Q) Would you mind telling me which call this test gave COCCOc1cc2cc(C(=O)NC3CCN(C(C)C)CC3)n(CC(=O)Nc3ccc(Cl)cn3)c2cn1 ?
(A) f

(Q) Would you mind telling me which call this test gave CC(=O)c1ccc2c(c1)[C@H](NC(=O)c1ccc(F)cc1)[C@@H](O)C(C)(C)O2 ?
(A) f

(Q) Would you mind telling me which call this test gave CCCCCCCCCCCCc1ccccc1 ?
(A) f

(Q) Would you mind telling me which call this test gave CC(C)CC(C)(O)C#CC(C)(O)CC(C)C (stereo unspecified) ?
(A) f

(Q) Would you mind telling me which call this test gave CCOCCOCCOCCO ?
(A) f

---

# targetSystem: human Peripheral-type Benzodiazepine Receptor (PBR), TSPO (gene 706) (UniProt P30536)
# Sequence (P30536 whole entry, looked up): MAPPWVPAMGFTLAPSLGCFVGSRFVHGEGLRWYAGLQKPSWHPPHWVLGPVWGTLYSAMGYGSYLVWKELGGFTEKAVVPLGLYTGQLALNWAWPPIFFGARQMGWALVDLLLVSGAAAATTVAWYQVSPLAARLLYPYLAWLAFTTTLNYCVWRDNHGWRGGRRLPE
# testSummary: NVS_MP_hPBR: NovaScreen (NVS) Membrane Protein Assay for human Peripheral-type Benzodiazepine Receptor (PBR) (AID 2283331);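 note: hits reduce radioligand binding relative to DMSO baseline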
Records with an inconclusive call do not appear. Active and inactive are the calls of the source. Rule for the calls: active = hit-call score of the fitted dose curve at least 0.9, where 1 is the maximum; inconclusive = response in the unintended direction; inactive = score below 0.9.
assayMetric: AC50

O=C(OC[C@H]1O[C@@H](OC(=O)c2cc(O)c(O)c(OC(=O)c3cc(O)c(O)c(O)c3)c2)[C@H](OC(=O)c2cc(O)c(O)c(OC(=O)c3cc(O)c(O)c(O)c3)c2)[C@@H](OC(=O)c2cc(O)c(O)c(OC(=O)c3cc(O)c(O)c(O)c3)c2)[C@@H]1OC(=O)c1cc(O)c(O)c(OC(=O)c2cc(O)c(O)c(O)c2)c1)c1cc(O)c(O)c(OC(=O)c2cc(O)c(O)c(O)c2)c1 5.11 µM (active)
COc1ccc2sc(C(=O)Nc3nnn[nH]3)c(OC(C)C)c2c1 25 µM (active)
Nc1ccc(Nc2ccccc2)cc1 11.2 µM (active)
CCN(C(=O)c1cc(C)cc(OC[C@H](C)Nc2ccncc2)c1)C(C)C 12.5 µM (active)
CC(C)CCO 15.8 µM (active)

Shifting focus to the compound that follows.
(Q) Request the reported AC50 associated with Cc1[nH]cnc1C[C@H]1CCc2c(C)c3ccccc3n2C1=O
(A) inactive

---

# Read-out: Broad substrate specificity ATP-binding cassette transporter ABCG2 (Homo sapiens) (UniProt Q9UNQ0)
# Sequence (Q9UNQ0 whole entry, looked up): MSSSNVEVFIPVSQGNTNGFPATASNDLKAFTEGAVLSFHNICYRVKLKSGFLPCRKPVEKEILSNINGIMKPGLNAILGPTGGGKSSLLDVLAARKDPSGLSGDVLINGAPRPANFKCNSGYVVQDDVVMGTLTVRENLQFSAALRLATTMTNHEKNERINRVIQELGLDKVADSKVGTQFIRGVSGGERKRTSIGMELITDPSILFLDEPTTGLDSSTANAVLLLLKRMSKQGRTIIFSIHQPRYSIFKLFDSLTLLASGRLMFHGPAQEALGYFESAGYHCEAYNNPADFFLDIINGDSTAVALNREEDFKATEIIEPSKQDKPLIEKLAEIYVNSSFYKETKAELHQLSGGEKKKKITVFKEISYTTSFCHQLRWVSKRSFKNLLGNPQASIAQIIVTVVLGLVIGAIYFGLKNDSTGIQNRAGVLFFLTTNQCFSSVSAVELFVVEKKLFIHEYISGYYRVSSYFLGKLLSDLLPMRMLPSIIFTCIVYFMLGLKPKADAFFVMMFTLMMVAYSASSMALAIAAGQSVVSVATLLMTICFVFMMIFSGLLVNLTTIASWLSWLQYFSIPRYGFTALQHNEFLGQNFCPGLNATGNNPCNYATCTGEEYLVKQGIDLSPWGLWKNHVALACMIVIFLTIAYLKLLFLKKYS
# testSummary: LTEA_HepaRG_ABCG2: Life Technologies and Expression Analysis (LTEA) Assay for ABC Transporter (ABCG2) using HepaRG (AID 2283465)
# setupConditions: mRNA level, 48 h; actives raise or lower the signal
Activity calls are given as the source filed them. Rule for the calls: active = hit-call score of the fitted dose curve at least 0.9, where 1 is the maximum; inactive = score below 0.9.
Assign a class; possible classes are 1 (yes) = active, 0 (no) = inactive

(Q) Would you mind telling me which call this test gave O=C(O)CCN(C1(C(=O)NO)CCCC1)S(=O)(=O)c1ccc(Oc2ccc(F)cc2)cc1 ?
(A) 0 (no)

(Q) Would you mind telling me which call this test gave CC[C@H]1OC(=O)[C@H](C)[C@@H](O[C@H]2C[C@@](C)(OC)[C@@H](O)[C@H](C)O2)[C@H](C)[C@@H](O[C@@H]2O[C@H](C)C[C@H](N(C)C)[C@H]2O)[C@](C)(O)C[C@@H](C)C(=O)[C@H](C)[C@@H](O)[C@]1(C)O ?
(A) 0 (no)

(Q) Would you mind telling me which call this test gave CCCCC(CC)COC(=O)c1ccc(C(=O)OCC(CC)CCCC)cc1 (stereo not given) ?
(A) 0 (no)

(Q) Would you mind telling me which call this test gave C=CC(=C)CCC=C(C)C ?
(A) 0 (no)

(Q) Would you mind telling me which call this test gave CC(=O)c1ccc2c(c1)[C@H](NC(=O)c1ccc(F)cc1)[C@@H](O)C(C)(C)O2 ?
(A) 0 (no)

(Q) Would you mind telling me which call this test gave O=C1OC(=O)C2C3C=CC(C3)C12 (stereo not given) ?
(A) 0 (no)

(Q) Would you mind telling me which call this test gave O=C(O)CC(O)C(=O)O (stereo not given) ?
(A) 0 (no)

(Q) Would you mind telling me which call this test gave Cc1ccc(O)cc1 ?
(A) 0 (no)

(Q) Would you mind telling me which call this test gave NC(=O)NO ?
(A) 0 (no)

(Q) Would you mind telling me which call this test gave COC(=O)c1ccccc1O ?
(A) 0 (no)

(Q) Would you mind telling me which call this test gave COCCOCCOCCOC ?
(A) 0 (no)

(Q) Would you mind telling me which call this test gave COCCOc1cc2cc(C(=O)NC3CCN(C(C)C)CC3)n(CC(=O)Nc3ccc(Cl)cn3)c2cn1 ?
(A) 0 (no)

(Q) Would you mind telling me which call this test gave CCCN(C1CCN(C(=O)C2CCNCC2)CC1)[C@@H]1CCc2ccc(OC)cc2C1 ?
(A) 1 (yes)

(Q) Would you mind telling me which call this test gave Cc1[nH]cnc1C[C@H]1CCc2c(C)c3ccccc3n2C1=O ?
(A) 0 (no)

(Q) Would you mind telling me which call this test gave O=C(O)c1cccc(Oc2ccccc2)c1 ?
(A) 0 (no)

(Q) Would you mind telling me which call this test gave CC(C)c1cccc(C(C)C)c1N1C(=O)c2ccc(O)cc2C1=O ?
(A) 1 (yes)

(Q) Would you mind telling me which call this test gave Cn1c(=O)cc(Oc2ccc(F)cc2F)c2cnc(NCC(C)(C)O)nc21 ?
(A) 0 (no)

(Q) Would you mind telling me which call this test gave CCOC(=O)c1ccc(C2CCC(NC[C@H](O)COc3ccc(O)c(NS(C)(=O)=O)c3)CC2)cc1 (stereo not given in full) ?
(A) 0 (no)

(Q) Would you mind telling me which call this test gave O=P(OC(CCl)CCl)(OC(CCl)CCl)OC(CCl)CCl ?
(A) 1 (yes)

(Q) Would you mind telling me which call this test gave CCN(C(=O)c1cc(C)cc(OC[C@H](C)Nc2ccncc2)c1)C(C)C ?
(A) 0 (no)

(Q) Would you mind telling me which call this test gave C1N2CN3CN1CN(C2)C3 ?
(A) 0 (no)

(Q) Would you mind telling me which call this test gave CCC(C)(C)C(=O)O[C@H]1C[C@@H](C)C=C2C=C[C@H](C)[C@H](CC[C@@H]3C[C@@H](O)CC(=O)O3)[C@H]21 ?
(A) 0 (no)

(Q) Would you mind telling me which call this test gave CCCCCCCCO ?
(A) 0 (no)

(Q) Would you mind telling me which call this test gave Nc1cccc(N)c1 ?
(A) 0 (no)

(Q) Would you mind telling me which call this test gave CC(C)CCCCCCCOC(=O)CCCCC(=O)OCCCCCCCC(C)C ?
(A) 0 (no)
